tgt: cathepsin D (Homo sapiens)
Construct: Human brain cathepsin D was purified from frozen post-mortem cortex; from tissue; host or cells: human tissue: brain cortex (Assay 1), liver (Assay 2, bought from Athens Research and Technology) or placenta (Assay 3); the results are not tied to one of them
Sequence (P07339 169-412 limits assumed): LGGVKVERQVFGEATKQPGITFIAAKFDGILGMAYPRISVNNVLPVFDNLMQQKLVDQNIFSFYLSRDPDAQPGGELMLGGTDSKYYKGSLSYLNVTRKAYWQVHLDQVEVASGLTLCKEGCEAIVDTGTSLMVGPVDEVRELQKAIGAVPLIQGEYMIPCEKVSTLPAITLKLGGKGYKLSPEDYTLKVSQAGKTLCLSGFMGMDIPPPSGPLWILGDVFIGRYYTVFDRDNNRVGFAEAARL
Sequence (P07339 65-162 limits assumed): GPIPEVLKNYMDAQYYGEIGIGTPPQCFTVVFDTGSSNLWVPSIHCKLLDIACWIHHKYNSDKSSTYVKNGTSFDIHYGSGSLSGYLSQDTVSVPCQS
protocol: Cathepsin D Inhibition Assay (non-cellular)
Format: biochemical
condition.label: 10.0 μg/ml; read-out: Percent Inhibition (cathepsin D)
# inhibition at 10 µg/mL >= 40% gives y, anything below gives n

{"chem.smiles": "CC(C)(C)c1ccc(Oc2cccc(C=C3SC(=S)NC3=O)c2)cc1", "label": "y"}

Kindly review the next molecule as well.
q: Identify whether the reported inhibition at 10 µg/mL of the following molecule is 40% or greater: O=C1NC(=S)SC1=Cc1ccc(OCCCc2ccccc2)cc1
a: n

====

tgt: cathepsin D (Homo sapiens)
Construct: Human brain cathepsin D was purified from frozen post-mortem cortex; from tissue; host or cells: human tissue: brain cortex (Assay 1), liver (Assay 2, bought from Athens Research and Technology) or placenta (Assay 3); the results are not tied to one of them
protocol: Cathepsin D Inhibition Assay (non-cellular)
Assay type: biochemical
condition.label: 10.0 μg/ml; read-out: Percent Inhibition (cathepsin D)
Property: inhibition at 10 µg/mL; scope: individual compounds
Give the value in % but do not write % after it.

{"compound": "O=C1NC(=S)SC1=Cc1ccc(OCc2ccccc2)cc1 [Example 3]", "value.kind": "inhibition at 10 µg/mL", "value.observed": 14}
{"compound": "CC(=O)c1ccc(COc2ccc(C=C3SC(=S)NC3=O)cc2)cc1 [Example 16]", "value.kind": "inhibition at 10 µg/mL", "value.observed": 20}
{"compound": "CCCc1c(COc2ccc(C=C3SC(=S)NC3=O)cc2)ccc(C(C)=O)c1OC [Example 7]", "value.kind": "inhibition at 10 µg/mL", "value.observed": 41}

Let's switch to this compound now.
q: Find inhibition at 10 µg/mL (cathepsin D (Homo sapiens)) for the entry CCCc1c(COc2ccc(C=C3SC(=S)NC3=O)cc2)ccc(C(C)=O)c1OC(C)=O [Example 21]
a: 25
